- TARGET: UniProt:P28222
- Sequence (P28222 whole entry): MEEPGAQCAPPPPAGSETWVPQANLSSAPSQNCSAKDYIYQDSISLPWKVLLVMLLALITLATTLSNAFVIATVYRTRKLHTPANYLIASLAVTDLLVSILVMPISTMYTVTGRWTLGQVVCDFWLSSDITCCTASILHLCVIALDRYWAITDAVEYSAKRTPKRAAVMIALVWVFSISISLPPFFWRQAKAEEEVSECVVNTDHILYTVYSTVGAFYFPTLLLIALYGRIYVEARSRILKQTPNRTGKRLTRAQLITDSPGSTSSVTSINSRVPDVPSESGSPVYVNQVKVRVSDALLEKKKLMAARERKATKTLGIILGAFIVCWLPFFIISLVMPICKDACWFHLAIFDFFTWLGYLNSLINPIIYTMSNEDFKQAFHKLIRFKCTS
- ASSAY NOTES: PDSP screening affinity 5-HT1B
- Type: binding
- ASSAY CONTEXT: 5-HT1B affinity
The entries below are paired with their reported pKi.
The quantity pKi is defined as the negative base-10 logarithm of the molar concentration.

Example compounds with recorded pKi:
[[record]]
chemical_structure = "COc1cc(CCNCc2ccccc2OC)c(OC)cc1I"
observable = "pKi"
readout_value = 5.23

[[record]]
chemical_structure = "COc1ccc(CNCCc2cc(OC)c(I)cc2OC)cc1"
observable = "pKi"
readout_value = 5.80

[[record]]
chemical_structure = "COc1ccc(CNCCc2c[nH]c3ccc(OC)cc23)cc1"
observable = "pKi"
readout_value = 5.97


(Q) Write down the reported pKi of COc1ccc2[nH]cc(CCNCc3ccc(Br)cc3)c2c1 , test system: UniProt:P28222.
(A) 5.36

(Q) // same read-out, input: COc1cc(CCNCc2cccc(Br)c2)c(OC)cc1I
(A) 5.80

(Q) What about COc1ccc2[nH]cc(CCNCc3cccc(F)c3)c2c1 ?
(A) 5.57
